Test system: smallflower flatsedge
Test: Test B flood test smallflower flatsedge
Format: in vivo, Cyperus difformis
Settings: flood test, listed under Postemergence, Rate 250 g/ha; scale 0 to 10, 0 no effect, 10 complete control
The entries below are paired with their reported S. Flatsedge plant response rating.

{"smiles_repr": "COc1ccccc1-n1c(=O)on(C(=O)N(c2ccc(F)cc2)C(C)C)c1=O", "S. Flatsedge plant response rating": 0}
{"smiles_repr": "CC(C)N(C(=O)n1oc(=O)n(-c2ccccc2)c1=O)c1ccc(F)cc1", "S. Flatsedge plant response rating": 0}
{"smiles_repr": "CC(C)N(C(=O)n1oc(=O)n(-c2ccccc2C(F)(F)F)c1=O)c1ccc(F)cc1", "S. Flatsedge plant response rating": 0}
{"smiles_repr": "CC(C)N(C(=O)n1oc(=O)n(Cc2ccccc2)c1=O)c1ccc(F)cc1F", "S. Flatsedge plant response rating": 4}
{"smiles_repr": "CCN(CC)C(=O)n1oc(=O)n(-c2c(C)cccc2C)c1=O", "S. Flatsedge plant response rating": 0}
